test: In vivo pharmacokinetic property study in male SD rats
conditions: Sprague-Dawley, rat, plasma, iv 0.3 mg/kg
measured-endpoint: clearance (mL/min/kg)
Give bare numbers, in mL/min/kg.

Request the reported clearance associated with `CO[C@@]12C(=O)Nc3nc(-c4nn(CCC(F)(F)C(F)(F)F)c5ncc(F)cc45)nc(c31)NC(=O)C2(C)C`
4.58

---

test: In vivo pharmacokinetic property study in male SD rats
conditions: Sprague-Dawley, rat, plasma, iv 0.3 mg/kg
measured-endpoint: half-life (h)
One number for each entry, in h.

Tell me the measured half-life of `CO[C@@]12C(=O)Nc3nc(-c4nn(CCC(F)(F)C(F)(F)F)c5ncc(F)cc45)nc(c31)NC(=O)C2(C)C` , please.
6.28

Reference source for all entries: patent US20240409560A1
